Data provenance: the supplement of paper PMC9233669

system: biotinyl-Ile-oxazolone; assay: self-aminoacylation, catalytic enhancement (BIO) (fold over background); higher = more active; k-Seq, kA / k0A0; sequences stand for … in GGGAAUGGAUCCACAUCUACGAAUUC…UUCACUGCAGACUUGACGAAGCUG
This sample holds only a part of the variants without activity.
sequences and their reported self-aminoacylation
No unit in the answer, only the number.

For orientation, consider the following solved cases.
Reported self-aminoacylation for GUUACCCUGGUCAUCGCGUGA [Fam2.1 aminoacylation ribozyme variant] : what is it? 11.2

Reported self-aminoacylation for CUACUUCAGACAAUCCGUCUG [Fam1A.1 aminoacylation ribozyme variant] : what is it? 0.902

Reported self-aminoacylation for CCACAAUUCAAGCCAUCGGUC [Fam1B.1 aminoacylation ribozyme variant] : what is it? 1.46

Next:
Reported self-aminoacylation for AUUCACCUAGGGCAUCGGGUA [Fam2.2 aminoacylation ribozyme variant] : what is it? 2.89

Reported self-aminoacylation for CCACACUUAAAGGAAUCGGUC [Fam1B.1 aminoacylation ribozyme variant] : what is it? 1.12

---

test system: biotinyl-Phe-oxazolone; assay: self-aminoacylation, catalytic enhancement (BFO) (fold over background); higher = more active; k-Seq, kA / k0A0; sequences stand for … in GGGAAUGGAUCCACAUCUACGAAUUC…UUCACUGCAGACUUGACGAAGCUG
Variants at the floor of the assay were thinned out.
Think of 3 as a floor: if self-aminoacylation stands on it or above, it is YES; beneath it, NO.

Please review the following examples before continuing.
Evaluate CCACACUUCAAGCAAUCCAUC [Fam1B.1 aminoacylation ribozyme variant] : self-aminoacylation at minimum 3? NO

Evaluate AAGUUUGCUUAUAGUCGCAAG [Fam3.1 aminoacylation ribozyme variant] : self-aminoacylation at minimum 3? NO

Evaluate AUUCACCUAGGUAAUCGGUUG [Fam2.2 aminoacylation ribozyme variant] : self-aminoacylation at minimum 3? NO

Evaluate AUUUACCUAUGUCAUCGGGUG [Fam2.2 aminoacylation ribozyme variant] : self-aminoacylation at minimum 3? YES

Evaluate UUACUUUAAACAAUCGGUCUG [Fam1A.1 aminoacylation ribozyme variant] : self-aminoacylation at minimum 3? NO

Evaluate CUACUUGAAACAAUCGGCCUG [Fam1A.1 aminoacylation ribozyme variant] : self-aminoacylation at minimum 3? NO

Evaluate CCACCCUUCAAGCAAUCGGUA [Fam1B.1 aminoacylation ribozyme variant] : self-aminoacylation at minimum 3? NO

Evaluate CCACACUUCAAAUAAUCGGUC [Fam1B.1 aminoacylation ribozyme variant] : self-aminoacylation at minimum 3? YES

Evaluate AAGUUUGCUAAUAGUGGCAAC [Fam3.1 aminoacylation ribozyme variant] : self-aminoacylation at minimum 3? NO

Evaluate CCACACCUCAUGCAAUCGGUC [Fam1B.1 aminoacylation ribozyme variant] : self-aminoacylation at minimum 3? NO

Next:
Evaluate CUACUUCAAUCAUUCGGUCUG [Fam1A.1 aminoacylation ribozyme variant] : self-aminoacylation at minimum 3? NO

Evaluate AGUCACCUAGGUCAUCGCGUG [Fam2.2 aminoacylation ribozyme variant] : self-aminoacylation at minimum 3? YES

Evaluate ACUACCCUGGUCAUCGAGCGA [Fam2.1 aminoacylation ribozyme variant] : self-aminoacylation at minimum 3? NO

Evaluate CUACACUUCAAGUAAUCGGUC [Fam1B.1 aminoacylation ribozyme variant] : self-aminoacylation at minimum 3? YES

Evaluate AUUCACCUAGAUCGUCGGGUG [Fam2.2 aminoacylation ribozyme variant] : self-aminoacylation at minimum 3? YES

Evaluate UUUCACCUAGGUCCUCGGGUG [Fam2.2 aminoacylation ribozyme variant] : self-aminoacylation at minimum 3? YES

Evaluate AUUACCCUGAUCAUCGAGUGA [Fam2.1 aminoacylation ribozyme variant] : self-aminoacylation at minimum 3? YES

Evaluate CUAAUGCAAACAAUCGGUCUG [Fam1A.1 aminoacylation ribozyme variant] : self-aminoacylation at minimum 3? NO
